B1: KLHL14 (parent)
chain: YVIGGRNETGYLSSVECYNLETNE

Variants of: B1
Test: protein stability index of a GFP-peptide fusion (GPS, HEK-293T) (PSI 1-6); higher = more stable;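 also: lentivirally expressed fusions sorted by FACS into six bins by GFP to DsRed ratio, PSI derived from sequencing read proportions per bin multiplied by bin number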
Conditions: c terminus: a fixed tail appended
Decision: protein stability index >= 2 yields Met, all other cases yield Not met.

sequence chain: YVIGGRNETGYLSSNECYNLETNE [V15N]
class label: Met

sequence chain: YVIGGMNETGYLSSVECYNLETNE [R6M]
class label: Not met

sequence chain: YVIGGRNETGYLSSVECYNLETME [N23M]
class label: Not met

Challenge: hey, is protein stability index for this one >= 2? YVIGGRNETGYLSSVDCYNLETNE [E16D]
Response given: Met

Challenge: hey, is protein stability index for this one >= 2? YVIGMRNETGYLSSVECYNLETNE [G5M]
Response given: Not met

Challenge: hey, is protein stability index for this one >= 2? YVIGGRNETGYLSSVECYNLETNT [E24T]
Response given: Not met

Challenge: hey, is protein stability index for this one >= 2? YVIGGRNETPYLSSVECYNLETNE [G10P]
Response given: Not met

Challenge: hey, is protein stability index for this one >= 2? YVIGGRNETGYLSSVECYNLETFE [N23F]
Response given: Not met

Challenge: hey, is protein stability index for this one >= 2? YVIGGRNETGYLSSVECYNLKTNE [E21K]
Response given: Met

Challenge: hey, is protein stability index for this one >= 2? YVIFGRNETGYLSSVECYNLETNE [G4F]
Response given: Not met

Challenge: hey, is protein stability index for this one >= 2? YVIGGRNETGYLSCVECYNLETNE [S14C]
Response given: Met

Challenge: hey, is protein stability index for this one >= 2? YFIGGRNETGYLSSVECYNLETNE [V2F]
Response given: Met

Challenge: hey, is protein stability index for this one >= 2? YVIGGRNETGYLSMVECYNLETNE [S14M]
Response given: Met

Challenge: hey, is protein stability index for this one >= 2? YVIGGRNETGYLPSVECYNLETNE [S13P]
Response given: Met

Challenge: hey, is protein stability index for this one >= 2? YVIVGRNETGYLSSVECYNLETNE [G4V]
Response given: Not met

Challenge: hey, is protein stability index for this one >= 2? YVIAGRNETGYLSSVECYNLETNE [G4A]
Response given: Not met

Challenge: hey, is protein stability index for this one >= 2? YVIGGRNETGYLISVECYNLETNE [S13I]
Response given: Not met

Challenge: hey, is protein stability index for this one >= 2? YVIGGRNETGYESSVECYNLETNE [L12E]
Response given: Met

Challenge: hey, is protein stability index for this one >= 2? YVIGGRNETGYLSSVEYYNLETNE [C17Y]
Response given: Not met

Challenge: hey, is protein stability index for this one >= 2? YVTGGRNETGYLSSVECYNLETNE [I3T]
Response given: Met

Challenge: hey, is protein stability index for this one >= 2? YVIGGRNETGYLCSVECYNLETNE [S13C]
Response given: Met

Challenge: hey, is protein stability index for this one >= 2? YVIGGRNETGYWSSVECYNLETNE [L12W]
Response given: Met

Challenge: hey, is protein stability index for this one >= 2? YVIGGRNETGYLSSKECYNLETNE [V15K]
Response given: Met

Challenge: hey, is protein stability index for this one >= 2? YVIGGRNETGYLSSVECYNLETQE [N23Q]
Response given: Met

Challenge: hey, is protein stability index for this one >= 2? YVIGGRNETGRLSSVECYNLETNE [Y11R]
Response given: Met

Challenge: hey, is protein stability index for this one >= 2? YVIGGRNETGYLSSVECYNLEMNE [T22M]
Response given: Not met

Challenge: hey, is protein stability index for this one >= 2? YVIGGRNETGYMSSVECYNLETNE [L12M]
Response given: Met
